Biological target: Fuc(a1-2)Gal(b1-3)GalNAc(b1-3)Gal(a1-4)Gal(b1-4)Glc
Test: glycan array binding signal (z-score within array); higher = stronger binding
Details: glycan notation: IUPAC condensed, linker removed
The entries come from a sample that favours the strongest signals as a whole.
MEASURED_PARAMETER: glycan array binding signal (z-score)
Please reply with the number alone, leaving off any unit.

{"columns": ["BINDER", "glycan array binding signal (z-score)"],
 "data": [
  ["CLEC7A (Homo sapiens), Q9BXN2 (protein) MEYHPDLENLDEDGYTQLHFDSQSNTRIAVVSEKGSCAASPPWRLIAVILGILCLVILVIAVVLGTMAIWRSNSGSNTLENGYFLSRNKENHSQPTQSSLEDSVTPTKAVKTTGVLSSPCPPNWIIYEKSCYLFSMSLNSWDGSKRQCWQLGSNLLKIDSSNELGFIVKQVSSQPDNSFWIGLSRPQTEVPWLWEDGSTFSSNLFQIRTTATQENPSPNCVWIHVSVIYDQLCSVPSYSICEKKFSM", 0.301],
  ["CD72 ectodomain (Homo sapiens), P21854 (protein) RYLQVSQQLQQTNRVLEVTNSSLRQQLRLKITQLGQSAEDLQGSRRELAQSQEALQVEQRAHQAAEGQLQACQADRQKTKETLQSEEQQRRALEQKLSNMENRLKPFFTCGSADTCCPSGWIMHQKSCFYISLTSKNWQESQKQCETLSSKLATFSEIYPQSHSYYFLNSLLPNGGSGNSYWTGLSSNKDWKLTDDTQRTRTYAQSSKCNKVHKTWSWWTLESESCRSSLPYICEMTAFRFPD", -0.867]
]}

Provide one value: measured glycan array binding signal (z-score) of Crocus Lectin (Crocus vernus), Q9FVA1 (protein) MAKSLVLSSLLLALLLAAPLASLADNNVLLTGDVLHTDNQLSFESAAFVMQGDCNLVLYNEAGGFQSNTHGRGVGCTLRLNNFGQLEIHSANSNTPVWVSLRNGIPVRGDYAAVLGPDQHVTIYGPAIWSTPAPNRHERGATVSNIPRVRNVLFSSQVMSDNAQLATRDYSLVMRDDCNLALTKGSKTNIVWESGTSGRGQHCFMRLGHTGLIEISDDRLNTVWRSNTVGQEGDYVLILQINGQAVVYGPAVWSTASPARGGASAAL -0.162

All values here come from the supplement of paper PMC8728848.
